Ref: ChEMBL document CHEMBL4052817

- Tested on: Mus musculus
- procedure_summary: AUC (infinity) in CD-1 mouse assessed as (R)-3-(5-fluoro-1H-indol-3-yl)pyrrolidine-2,5-dione at 1 mg/kg, iv by LC-MS/MS method
- Assay type: ADME, organism-based
- Set-up: dose 1 mg/kg, route intravenous, time infinity
- details: in vivo
measure: AUC (ng·h/mL)
Answers are plain numbers, in ng·h/mL.

# value lookup — system Mus musculus, readout AUC, item O=C1CC(c2c[nH]c3ccc(F)cc23)C(=O)N1 (stereo unspecified)
1160

====

- test_system: Cytochrome P450 2C19 (Homo sapiens, UniProt P33261)
- Sequence (P33261 whole entry): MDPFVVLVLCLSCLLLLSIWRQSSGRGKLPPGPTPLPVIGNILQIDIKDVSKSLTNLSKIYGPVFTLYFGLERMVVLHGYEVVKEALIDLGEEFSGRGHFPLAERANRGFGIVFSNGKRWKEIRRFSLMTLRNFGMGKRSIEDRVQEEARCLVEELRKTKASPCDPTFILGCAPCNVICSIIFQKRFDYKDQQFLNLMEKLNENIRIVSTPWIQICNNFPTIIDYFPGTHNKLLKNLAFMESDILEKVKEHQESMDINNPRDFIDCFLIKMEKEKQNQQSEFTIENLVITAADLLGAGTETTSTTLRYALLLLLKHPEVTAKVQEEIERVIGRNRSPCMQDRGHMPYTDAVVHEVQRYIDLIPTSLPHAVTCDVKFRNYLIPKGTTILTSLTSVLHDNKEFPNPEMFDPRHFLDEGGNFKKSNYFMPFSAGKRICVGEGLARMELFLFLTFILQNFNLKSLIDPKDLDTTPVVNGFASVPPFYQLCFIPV
pIC50: −log10 of the molar value.
measure: pIC50

Fill in the blank: the reported pIC50 of O=C1C[C@H](c2c[nH]c3ccccc23)C(=O)N1 is ____.
< 5.00

====

- procedure_summary: Fraction unbound in mouse plasma
- Assay type: ADME, cell-free
measure: fraction unbound
One number for each entry.

Fill in the blank: the reported fraction unbound of O=C1C[C@H](c2c[nH]c3ccccc23)C(=O)N1 is ____.
0.55

====

- procedure_summary: Intrinsic clearance in human microsomes
- Format: ADME, Microsome
measure: clearance

Fill in the blank: the reported clearance of O=C1C[C@H](c2c[nH]c3ccccc23)C(=O)N1 is ____.
< 10 µL/min/mg

====

- procedure_summary: Half life in mouse
- Format: ADME, organism-based
- details: in vivo
measure: half-life (min)
Answers are plain numbers, in min.

Fill in the blank: the reported half-life of O=C1C[C@H](c2c[nH]c3ccccc23)C(=O)N1 is ____.
58.2

====

- procedure_summary: Intrinsic clearance in mouse microsomes
- Format: ADME, Microsome
measure: clearance

Fill in the blank: the reported clearance of O=C1C[C@H](c2c[nH]c3ccccc23)C(=O)N1 is ____.
< 10 µL/min/mg

====

- test_system: Indoleamine 2,3-dioxygenase 1 (Mus musculus, UniProt P28776)
- Sequence (P28776 whole entry): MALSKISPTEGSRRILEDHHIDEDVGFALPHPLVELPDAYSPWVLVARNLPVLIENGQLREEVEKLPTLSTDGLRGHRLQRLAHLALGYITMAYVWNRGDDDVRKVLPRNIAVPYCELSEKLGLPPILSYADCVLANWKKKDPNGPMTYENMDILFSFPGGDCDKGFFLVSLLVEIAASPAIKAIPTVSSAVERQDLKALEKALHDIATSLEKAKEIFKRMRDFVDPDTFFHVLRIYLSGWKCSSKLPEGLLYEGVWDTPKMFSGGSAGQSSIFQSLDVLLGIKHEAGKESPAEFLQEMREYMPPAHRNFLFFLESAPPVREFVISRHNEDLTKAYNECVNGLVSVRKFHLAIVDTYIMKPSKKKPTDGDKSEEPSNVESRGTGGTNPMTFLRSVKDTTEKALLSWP
measure: pIC50
Give bare numbers, as −log10 of the molar value.

Fill in the blank: the reported pIC50 of O=C1C[C@H](c2c[nH]c3ccc(F)cc23)C(=O)N1 is ____.
5.14

====

- procedure_summary: Fraction unbound in human plasma
- Type: ADME, cell-free
measure: fraction unbound
Answers are plain numbers.

Fill in the blank: the reported fraction unbound of O=C1C[C@H](c2c[nH]c3ccccc23)C(=O)N1 is ____.
0.43

====

- procedure_summary: Efflux ratio of apparent permeability across human Caco2 cells
- Format: ADME, cell-based
- details: Caco-2
measure: efflux ratio
Answers are plain numbers.

Fill in the blank: the reported efflux ratio of O=C1C[C@H](c2c[nH]c3ccccc23)C(=O)N1 is ____.
0.77

====

- test_system: UniProtKB P14902
- Sequence (P14902 whole entry): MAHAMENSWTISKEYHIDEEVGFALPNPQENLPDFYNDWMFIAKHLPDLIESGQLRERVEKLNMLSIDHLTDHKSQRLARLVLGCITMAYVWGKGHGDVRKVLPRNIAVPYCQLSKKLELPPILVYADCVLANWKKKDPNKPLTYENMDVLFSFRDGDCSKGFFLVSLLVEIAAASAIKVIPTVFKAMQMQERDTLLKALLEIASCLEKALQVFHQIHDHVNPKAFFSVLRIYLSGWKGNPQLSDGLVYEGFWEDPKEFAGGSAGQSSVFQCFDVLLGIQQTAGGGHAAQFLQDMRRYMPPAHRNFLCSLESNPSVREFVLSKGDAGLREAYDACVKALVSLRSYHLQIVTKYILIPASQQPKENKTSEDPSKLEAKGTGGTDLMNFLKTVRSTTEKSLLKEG
- procedure_summary: Inhibition of human recombinant IDO-1 using L-Trp as substrate after 15 mins by PDMAB-based assay
measure: pIC50
Answers are plain numbers, as −log10 of the molar value.

// worked examples, pIC50 included
INSERT INTO assay_data (molecule, test_system, measure, endpoint_value) VALUES
  ('O=C1CC(c2c[nH]c3ccc(Cl)cc23)C(=O)N1 (stereo unspecified)', 'UniProtKB P14902', 'pIC50', 6.08),
  ('O=C1C[C@H](c2c[nH]c3cc(Cl)c(F)cc23)C(=O)N1', 'UniProtKB P14902', 'pIC50', 6.24),
  ('O=C1C[C@@H](c2c[nH]c3ccccc23)C(=O)N1', 'UniProtKB P14902', 'pIC50', 4.08);

Here is another molecule to look at.
Fill in the blank: the reported pIC50 of N#Cc1ccc2[nH]cc(C3CC(=O)NC3=O)c2c1 (stereo unspecified) is ____.
5.92

====

pIC50: −log10 of the molar value.
A set of compounds tested on Cytochrome P450 2D6 (Homo sapiens), with measured pIC50:

INSERT INTO results (compound, endpoint_value) VALUES
  ('O=C1CC(c2c[nH]c3ccc(F)cc23)C(=O)N1 (configuration not stated)', '< 4.00');

Here is another compound to look at.
Fill in the blank: the reported pIC50 of O=C1C[C@H](c2c[nH]c3ccccc23)C(=O)N1 is ____.
< 5.00

====

- test_system: Broad substrate specificity ATP-binding cassette transporter ABCG2 (Homo sapiens, UniProt Q9UNQ0)
- Sequence (Q9UNQ0 whole entry): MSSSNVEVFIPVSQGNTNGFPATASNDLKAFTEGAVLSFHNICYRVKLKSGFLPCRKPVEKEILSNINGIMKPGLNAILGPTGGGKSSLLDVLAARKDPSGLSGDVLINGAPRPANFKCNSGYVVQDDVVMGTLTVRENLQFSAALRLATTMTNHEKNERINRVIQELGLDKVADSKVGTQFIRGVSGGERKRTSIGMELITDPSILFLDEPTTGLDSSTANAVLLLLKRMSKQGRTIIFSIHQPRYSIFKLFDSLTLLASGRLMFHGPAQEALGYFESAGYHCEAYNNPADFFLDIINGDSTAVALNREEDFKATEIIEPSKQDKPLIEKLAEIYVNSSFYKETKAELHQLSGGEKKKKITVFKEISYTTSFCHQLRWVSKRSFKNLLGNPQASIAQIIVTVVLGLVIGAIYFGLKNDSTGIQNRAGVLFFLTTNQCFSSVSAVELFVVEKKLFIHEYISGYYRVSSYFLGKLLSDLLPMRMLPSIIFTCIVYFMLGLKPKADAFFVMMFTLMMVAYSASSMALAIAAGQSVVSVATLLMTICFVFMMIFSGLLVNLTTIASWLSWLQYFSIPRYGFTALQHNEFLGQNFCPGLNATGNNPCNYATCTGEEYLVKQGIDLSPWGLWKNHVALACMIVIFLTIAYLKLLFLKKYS
- procedure_summary: Inhibition of BCRP (unknown origin) transfected in MDCK cells assessed as decrease in pitavastatin transport
measure: IC50 (µM)
One number for each entry, in µM.

Fill in the blank: the reported IC50 of O=C1CC(c2c[nH]c3ccc(F)cc23)C(=O)N1 (stereo unspecified) is ____.
65.4

====

- procedure_summary: Volume of distribution at steady state in mouse
- Format: ADME, organism-based
- details: in vivo, read-out: Vdss
measure: Vd (L/kg)
One number for each entry, in L/kg.

Fill in the blank: the reported Vd of O=C1C[C@H](c2c[nH]c3ccccc23)C(=O)N1 is ____.
1.2
